Hi there, I'd appreciate the recorded solubility in G1/S (log2) for every entry that follows.
Tested on: HeLa Kyoto
assay-summary: solubility in G1/S (NP-40 vs SDS abundance) (log2 ratio); higher = more soluble
condition-set: cell cycle stage: G1/S
Reply with just the number.

Ask: // Input: MAHAPARCPSARGSGDGEMGKPRNVALITGITGQDGSYLAEFLLEKGYEVHGIVRRSSSFNTGRIEHLYKNPQAHIEGNMKLHYGDLTDSTCLVKIINEVKPTEIYNLGAQSHVKISFDLAEYTADVDGVGTLRLLDAVKTCGLINSVKFYQASTSELYGKVQEIPQKETTPFYPRSPYGAAKLYAYWIVVNFREAYNLFAVNGILFNHESPRRGANFVTRKISRSVAKIYLGQLECFSLGNLDAKRDWGHAKDYVEAMWLMLQNDEPEDFVIATGEVHSVREFVEKSFLHIGKTIVWEGKNENEVGRCKETGKVHVTVDLKYYRPTEVDFLQGDCTKAKQKLNWKPRVAFDELVREMVHADVELMRTNPNA [GMDS] . Output its solubility in G1/S (log2) only.
Result: -0.249

Ask: // Input: MSAEVKVTGQNQEQFLLLAKSAKGAALATLIHQVLEAPGVYVFGELLDMPNVRELAESDFASTFRLLTVFAYGTYADYLAEARNLPPLTEAQKNKLRHLSVVTLAAKVKCIPYAVLLEALALRNVRQLEDLVIEAVYADVLRGSLDQRNQRLEVDYSIGRDIQRQDLSAIARTLQEWCVGCEVVLSGIEEQVSRANQHKEQQLGLKQQIESEVANLKKTIKVTTAAAAAATSQDPEQHLTELREPAPGTNQRQPSKKASKGKGLRGSAKIWSKSN [COPS7A] . Output its solubility in G1/S (log2) only.
Result: 0.458

Ask: // Input: MAGKQAVSASGKWLDGIRKWYYNAAGFNKLGLMRDDTIYEDEDVKEAIRRLPENLYNDRMFRIKRALDLNLKHQILPKEQWTKYEEENFYLEPYLKEVIRERKEREEWAKK [UQCRB] . Output its solubility in G1/S (log2) only.
Result: -0.132

---

System: HeLa Kyoto
assay-summary: melting temperature (median over replicates), in situ; higher = more thermally stable
condition-set: cell cycle stage: G1/S
Hi there, I'd appreciate the recorded melting temperature for every entry that follows.
Report the value in °C with no unit label.

Ask: // Input: MAVTGWLESLRTAQKTALLQDGRRKVHYLFPDGKEMAEEYDEKTSELLVRKWRVKSALGAMGQWQLEVGDPAPLGAGNLGPELIKESNANPIFMRKDTKMSFQWRIRNLPYPKDVYSVSVDQKERCIIVRTTNKKYYKKFSIPDLDRHQLPLDDALLSFAHANCTLIISYQKPKEVVVAESELQKELKKVKTAHSNDGDCKTQ [DPCD] . Output its melting temperature only.
Result: 49.9

Ask: // Input: MAATGANAEKAESHNDCPVRLLNPNIAKMKEDILYHFNLTTSRHNFPALFGDVKFVCVGGSPSRMKAFIRCVGAELGLDCPGRDYPNICAGTDRYAMYKVGPVLSVSHGMGIPSISIMLHELIKLLYYARCSNVTIIRIGTSGGIGLEPGTVVITEQAVDTCFKAEFEQIVLGKRVIRKTDLNKKLVQELLLCSAELSEFTTVVGNTMCTLDFYEGQGRLDGALCSYTEKDKQAYLEAAYAAGVRNIEMESSVFAAMCSACGLQAAVVCVTLLNRLEGDQISSPRNVLSEYQQRPQRLVSYFIKKKLSKA [UPP1] . Output its melting temperature only.
Result: 56.8

Ask: // Input: MEVHGKPKASPSCSSPTRDSSGVPVSKELLTAGSDGRGGIWDRLLINSQPKSRKTSTLQTVRIERSPLLDQVQTFLPQMARANEKLRKEMAAAPPGRFNIENIDGPHSKVIQMDVALFEMNQSDSKEVDSSEESSQDSSENSSESEDEDDSIPSEVTIDNIKLPNSEGGKGKIEVLDSPASKKKK [C12ORF45] . Output its melting temperature only.
Result: 52.9

Ask: // Input: MFRRKLTALDYHNPAGFNCKDETEFRNFIVWLEDQKIRHYKIEDRGNLRNIHSSDWPKFFEKYLRDVNCPFKIQDRQEAIDWLLGLAVRLEYGDNAEKYKDLVPDNSKTADNATKNAEPLINLDVNNPDFKAGVMALANLLQIQRHDDYLVMLKAIRILVQERLTQDAVAKANQTKEGLPVALDKHILGFDTGDAVLNEAAQILRLLHIEELRELQTKINEAIVAVQAIIADPKTDHRLGKVGR [C14ORF166] . Output its melting temperature only.
Result: 50.1

Ask: // Input: MLRSVWNFLKRHKKKCIFLGTVLGGVYILGKYGQKKIREIQEREAAEYIAQARRQYHFESNQRTCNMTVLSMLPTLREALMQQLNSESLTALLKNRPSNKLEIWEDLKIISFTRSTVAVYSTCMLVVLLRVQLNIIGGYIYLDNAAVGKNGTTILAPPDVQQQYLSSIQHLLGDGLTELITVIKQAVQKVLGSVSLKHSLSLLDLEQKLKEIRNLVEQHKSSSWINKDGSKPLLCHYMMPDEETPLAVQACGLSPRDITTIKLLNETRDMLESPDFSTVLNTCLNRGFSRLLDNMAEFFRPTEQDLQHGNSMNSLSSVSLPLAKIIPIVNGQIHSVCSETPSHFVQDLLTMEQVKDFAANVYEAFSTPQQLEK [PEX3] . Output its melting temperature only.
Result: 50

Ask: // Input: MTGKKSSREKRRKRSSQEAAAALAAPDIVPALASGSSGSTSGCGSAGGCGSVSCCGNANFSGSVTGGGSGGSCWGGSSVERSERRKRRSTDSSSVSGSLQQETKYILPTLEKELFLAEHSDLEEGGLDLTVSLKPVSFYISDKKEMLQQCFCIIGEKKLQKMLPDVLKNCSIEEIKKLCQEQLELLSEKKILKILEGDNGMDSDMEEEADDGSKMGSDLVSQQDICIDSASSVRENKQPEGLELKQGKGEDSDVLSINADAYDSDIEGPCNEEAAAPEAPENTVQSEAGQIDDLEKDIEKSVNEILGLAESSPNEPKAATLAVPPPEDVQPSAQQLELLELEMRARAIKALMKAGDIKKPA [CAAP1] . Output its melting temperature only.
Result: 47.3

Ask: // Input: MEPAVSEPMRDQVARTHLTEDTPKVNADIEKVNQNQAKRCTVIGGSGFLGQHMVEQLLARGYAVNVFDIQQGFDNPQVRFFLGDLCSRQDLYPALKGVNTVFHCASPPPSSNNKELFYRVNYIGTKNVIETCKEAGVQKLILTSSASVIFEGVDIKNGTEDLPYAMKPIDYYTETKILQERAVLGANDPEKNFLTTAIRPHGIFGPRDPQLVPILIEAARNGKMKFVIGNGKNLVDFTFVENVVHGHILAAEQLSRDSTLGGKAFHITNDEPIPFWTFLSRILTGLNYEAPKYHIPYWVAYYLALLLSLLVMVISPVIQLQPTFTPMRVALAGTFHYYSCERAKKAMGYQPLVTMDDAMERTVQSFRHLRRVK [NSDHL] . Output its melting temperature only.
Result: 53.1

Ask: // Input: MAAVDSFYLLYREIARSCNCYMEALALVGAWYTARKSITVICDFYSLIRLHFIPRLGSRADLIKQYGRWAVVSGATDGIGKAYAEELASRGLNIILISRNEEKLQVVAKDIADTYKVETDIIVADFSSGREIYLPIREALKDKDVGILVNNVGVFYPYPQYFTQLSEDKLWDIINVNIAAASLMVHVVLPGMVERKKGAIVTISSGSCCKPTPQLAAFSASKAYLDHFSRALQYEYASKGIFVQSLIPFYVATSMTAPSNFLHRCSWLVPSPKVYAHHAVSTLGISKRTTGYWSHSIQFLFAQYMPEWLWVWGANILNRSLRKEALSCTA [HSDL1] . Output its melting temperature only.
Result: 57.5

Ask: // Input: MAESPTEEAATAGAGAAGPGASSVAGVVGVSGSGGGFGPPFLPDVWAAAAAAGGAGGPGSGLAPLPGLPPSAAAHGAALLSHWDPTLSSDWDGERTAPQCLLRIKRDIMSIYKEPPPGMFVVPDTVDMTKIHALITGPFDTPYEGGFFLFVFRCPPDYPIHPPRVKLMTTGNNTVRFNPNFYRNGKVCLSILGTWTGPAWSPAQSISSVLISIQSLMTENPYHNEPGFEQERHPGDSKNYNECIRHETIRVAVCDMMEGKCPCPEPLRGVMEKSFLEYYDFYEVACKDRLHLQGQTMQDPFGEKRGHFDYQSLLMRLGLIRQKVLERLHNENAEMDSDSSSSGTETDLHGSLRV [UBE2Z] . Output its melting temperature only.
Result: 52.7

meta.source: the supplement of paper PMC5998384
